Target: human FPR1 (Homo sapiens (Human), UniProt P21462)
Sequence (P21462 whole entry): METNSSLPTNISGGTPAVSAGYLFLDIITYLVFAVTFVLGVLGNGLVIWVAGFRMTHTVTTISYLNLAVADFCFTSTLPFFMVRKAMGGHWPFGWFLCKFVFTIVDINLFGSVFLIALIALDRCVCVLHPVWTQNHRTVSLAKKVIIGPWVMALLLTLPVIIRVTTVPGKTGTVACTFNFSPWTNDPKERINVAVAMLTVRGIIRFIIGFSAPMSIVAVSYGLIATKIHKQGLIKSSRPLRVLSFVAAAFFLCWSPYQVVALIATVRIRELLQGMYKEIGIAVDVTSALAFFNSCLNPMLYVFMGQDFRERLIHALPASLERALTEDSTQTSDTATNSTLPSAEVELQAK
Assay: FPR1 cyclic adenosine monophosphate (cAMP) assay
Conditions: CHO cells overexpressing human FPR1; forskolin 10 μM, IBMX 200 μM; inhibition of cAMP production, HTRF; read-out: hFPR1 cAMP EC50
property.label: EC50 (nM)

[
  {
    "query.smiles": "CP(C)(=O)c1ccccc1-c1ccc(N2CC[C@@H](NC(=O)Nc3ccc(Cl)cc3F)C2=O)c(F)c1Cl",
    "property.label": "EC50",
    "observed.value": 27
  }
]

[A] CCP(=O)(CC)c1ccccc1-c1ccc(N2CC[C@@H](NC(=O)Nc3ccc(C(F)(F)F)cc3F)C2=O)c(F)c1F
[B] CCP(=O)(CC)c1ccccc1-c1ccc(N2CC[C@@H](NC(=O)Nc3ncc(Cl)cc3F)C2=O)c(F)c1F
Incoming: Identify the entry with the smaller EC50: A or B . Please indicate the selected item by its label.
Outgoing: A
(A: 150 nM, B: 1300 nM)
